# assay-summary: pH stability of quenched linker-payloads in buffers (LCMS)
# Type: physicochemical
# experimental-context: pH 4.0, 3 Day, RT
experimental-endpoint: percentage of the remaining compound (%)

• CC(C)[C@H](NC(=O)CCOCCOCCOCCOCCNC(=O)CCC(=O)N1Cc2ccccc2-c2c(nnn2CCOCCOCCOCCOCCC(=O)NCCS(=O)(=O)O)-c2ccccc21)C(=O)N[C@@H](CCCNC(N)=O)C(=O)Nc1ccc(COC(=O)NCC(=O)NCOCC(=O)[C@@]2(O)[C@H](C)C[C@H]3[C@@H]4CCC5=CC(=O)C=C[C@]5(C)[C@@]4(F)[C@@H](O)C[C@@]32C)cc1 [Q1L1-PI] = 100
